Assay: Aqueous solubility
Format: physicochemical
readout_label: solubility (µg/mL)
Express it in µg/mL; write the number only.

q: GET /values?readout=solubility&item= CN1[C@@H](CCc2ccccc2)CCC[C@H]1CCc1ccccc1 [compound 1, N-methyl-cis-2,6-diphenethylpiperidine]
a: 300
